- System: NCI-H226 lung
- PROTOCOL DESCRIPTION: NCI-60 one-dose screen, 48 h (100 = growth as untreated, 0 = no growth, -100 = all killed)
- CONDITION INFO: 10 µM
Compounds without any hit were thinned out: in the full panel of roughly 83,000, 20% have a hit.
# binarize growth: threshold 60% inclusive, high side 1.0, low side 0.0

[[record]]
molecule = "CC1(C)CC(=O)c2c(nc3ccc(Cl)cc3c2-c2ccccc2)C1"
test_target = "NCI-H226 lung"
discrete_label = 1.0

[[record]]
molecule = "O=C(O)CNS(=O)(=O)c1ccc(OCCOc2ccc(S(=O)(=O)NCC(=O)O)cc2)cc1"
test_target = "NCI-H226 lung"
discrete_label = 1.0

[[record]]
molecule = "CCOC(=O)C(=O)Cc1cccnn1"
test_target = "NCI-H226 lung"
discrete_label = 1.0

[[record]]
molecule = "CCCCCCCCCCCC(=O)NCCCN(C)C"
test_target = "NCI-H226 lung"
discrete_label = 1.0

[[record]]
molecule = "CCN(CC)CCn1c(=N)n(CC(O)c2ccc(Cl)c(Cl)c2)c2ccccc21 (stereo not drawn)"
test_target = "NCI-H226 lung"
discrete_label = 1.0

[[record]]
molecule = "CCCCCCCOc1cccc(/C=C2/C(=O)N=C3SCCCN32)c1"
test_target = "NCI-H226 lung"
discrete_label = 1.0

[[record]]
molecule = "CCOC(=O)c1ccc(NC(=O)Nc2nncs2)cc1"
test_target = "NCI-H226 lung"
discrete_label = 0.0

[[record]]
molecule = "CCCCN(CCCC)c1ccc(C(=NC(C)CCCN(CC)CC)c2ccc(N(C)C)cc2)cc1 (stereo not drawn)"
test_target = "NCI-H226 lung"
discrete_label = 0.0

